Provenance of the data: patent US20250333501A1

target.or.system: T1, CLDN6 endogenously expressed by human cancer cell lines (ARK2, OVCA429) (human, UniProt P56747 1-220)
T1 construct: Untagged endogenous protein; also called Endogenous CLDN6+
T1 sequence: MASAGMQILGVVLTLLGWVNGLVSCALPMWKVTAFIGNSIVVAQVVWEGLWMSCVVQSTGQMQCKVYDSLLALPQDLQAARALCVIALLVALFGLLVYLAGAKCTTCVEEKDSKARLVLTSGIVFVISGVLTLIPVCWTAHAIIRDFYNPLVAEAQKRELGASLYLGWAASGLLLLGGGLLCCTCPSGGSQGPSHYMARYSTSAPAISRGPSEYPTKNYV
protocol.details: FACS, 1.5 µg Ab, OVCA429 cells
// label = 1 (yes) if FACS fluorescence is not less than 40000, otherwise 0 (no)

# binder, answer.label
data = [
    ("AB1-7 (antibody, V domains shown, Humanized; also called Humanized AB 1-7) VH: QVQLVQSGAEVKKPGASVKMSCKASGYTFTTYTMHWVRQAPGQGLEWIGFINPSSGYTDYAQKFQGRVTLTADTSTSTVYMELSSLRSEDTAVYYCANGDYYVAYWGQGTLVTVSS VL: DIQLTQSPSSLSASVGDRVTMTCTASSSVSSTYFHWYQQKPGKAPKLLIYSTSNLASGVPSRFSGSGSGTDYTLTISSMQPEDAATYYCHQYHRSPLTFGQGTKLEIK", "1 (yes)"),
    ("AB3-2 (antibody, V domains shown, also called Humanized AB 3-2) VH: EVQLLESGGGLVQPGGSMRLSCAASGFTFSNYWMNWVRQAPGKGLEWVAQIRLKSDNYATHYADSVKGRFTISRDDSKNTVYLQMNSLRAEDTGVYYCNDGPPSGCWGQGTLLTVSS VL: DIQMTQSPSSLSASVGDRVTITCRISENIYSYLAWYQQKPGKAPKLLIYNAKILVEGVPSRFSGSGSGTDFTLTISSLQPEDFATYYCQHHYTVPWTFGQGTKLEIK", "1 (yes)"),
    ("AB1-3 (antibody, V domains shown, also called Humanized AB 1-3) VH: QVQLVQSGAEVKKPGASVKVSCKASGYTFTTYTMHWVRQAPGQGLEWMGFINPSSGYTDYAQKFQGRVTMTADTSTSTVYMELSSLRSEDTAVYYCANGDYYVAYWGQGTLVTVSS VL: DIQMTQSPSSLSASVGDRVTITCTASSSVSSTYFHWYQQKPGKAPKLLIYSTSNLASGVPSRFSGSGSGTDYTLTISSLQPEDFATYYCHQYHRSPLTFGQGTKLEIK", "0 (no)"),
    ("AB9-4 (antibody, V domains shown, also called Humanized AB 9-4) VH: QVQLVQSGAEVKKPGASVKMSCKASGYRFTDYNMHWVRQAPGQGLEWIGYINPNNGGTNYAQKFQGRATLTVDTSTSTAYMELSSLRSEDTAVYYCARDYLYFFDCWGQGTLLTVSS VL: DIQMTQSPSSLSASVGDRVTITCRASQTIGTWLAWYQQKPGKAPKLLIYAAASLADGVPSRFSGSGSGTDFTFTISSLQPEDFVTYYCQQLYSIPRTFGQGTKLEIK", "0 (no)"),
    ("AB18-6 (antibody, V domains shown, also called Humanized AB 18-6) VH: QVQLVQSGAEVKKPGASVKISCKASGYSFTGYNMNWVRQAPGQGLEWIGNIDPYYGGSTYAQKFQGRATLTVDTSTSTAYMELSSLRSEDTAVYYCARERSGYVFSAMDYWGQGTLVTVSS VL: DIVMTQSPDSLAVSLGERVTMNCKSSQSVLFSSNQKNYLAWYQQKPGQPPKLLIYWASTRESGVPDRFSGSGSGTDFTLTISSVQAEDVAVYYCHQYLSSRTFGQGTKLEIK", "0 (no)"),
]
